- System: Caco-2
- Protocol notes: drug sensitivity score (DSS) for viability; higher = more toxic; extreme values may be limits of the assay
- Condition description: 72 h
Observed property: drug sensitivity score
Form field (numeric): enter value without unit.

Lookup: Returns the measured drug sensitivity score for the input compound. Input: Oc1ccc(C2(c3ccccc3F)CCC(F)(F)CC2)cc1
Found: 0

Lookup: Returns the measured drug sensitivity score for the input compound. Input: CCOC(=O)OC(C)OC1=C(C(=O)Nc2ccccn2)N(C)S(=O)(=O)c2ccccc21 (centres undefined)
Found: 0

Lookup: Returns the measured drug sensitivity score for the input compound. Input: Cc1ccc(-c2nn(C(C)(C)CNC(=O)c3ncccc3C)c3ncnc(N)c23)cc1
Found: 2

Lookup: Returns the measured drug sensitivity score for the input compound. Input: O=C(O)CC1CC(c2ccccc2)=NO1 (centres undefined)
Found: 0

Lookup: Returns the measured drug sensitivity score for the input compound. Input: Cc1cc(Nc2nc(N[C@@H](C)c3ncc(F)cn3)ncc2Cl)[nH]n1
Found: 0.2

Lookup: Returns the measured drug sensitivity score for the input compound. Input: c1ccc(Oc2nc(NC3CCCCC3)c3[nH]cnc3n2)cc1
Found: 0

Lookup: Returns the measured drug sensitivity score for the input compound. Input: CN(C)[C@@H]1CCc2[nH]c3ccc(NC(=O)c4ccc(F)cc4)cc3c2C1
Found: 0.2

Lookup: Returns the measured drug sensitivity score for the input compound. Input: CC[C@H](NC(=O)c1c(C)c(-c2ccccc2)nc2ccccc12)c1ccccc1
Found: 0

Lookup: Returns the measured drug sensitivity score for the input compound. Input: O=C(NCCO)c1cccc(-c2cc(Nc3ccc(OC(F)(F)F)cc3)ncn2)c1
Found: 0.4
